These data points were gathered from patent US12637454B2.

Recorded pIC50 values (UniProt:Q99685) are given below.
Lab note: report pIC50 as minus log10 of the concentration in molar units, number only.

// solved cases for pIC50 follow
O=C(c1cccc(-c2ccsn2)c1Cl)N1CCN2C[C@@](O)(c3ccc(Cl)cc3)CC[C@@H]2C1 [Example 67] | 7.83
O=C(c1cccc2c1CCN2)N1CCN2C[C@@](O)(c3ccc(F)c(Cl)c3)CC[C@@H]2C1 [Example 65] | 7.16
COc1ccc(C(=O)N2CCN3C[C@@](O)(c4ccc(Cl)cc4)CC[C@@H]3C2)c(Cl)n1 [Example 7] | 6.40

For reference, reported pIC50 for COc1cccc(C(=O)N2CCN3CC(O)(c4ccc(C(F)(F)F)nc4)CCC3C2)c1Cl (racemic) [Example 71] stands at 6.56

* * *

Let's go through some pIC50 measurements on MAGL (Homo sapiens) together.
Lab note — pIC50 values are minus log10 of concentrations in M.

Known results for compounds:
O=C(c1cccc(N2CC(O)C2)c1F)N1CCN2C[C@@](O)(c3ccc(F)c(Cl)c3)CC[C@@H]2C1 [Example 39] | 7.42
CC(C)(C)OC(=O)Nc1ccc(/C=C/c2cccc(C(=O)N3CCN4C[C@@H](c5ccc(Cl)cc5)CC[C@@H]4C3)c2Br)cc1 [Example 29] | 8.12
O=C(c1cccc(N2CC[C@H](O)C2)c1Cl)N1CCN2C[C@@](O)(c3ccc(F)c(Cl)c3)CC[C@@H]2C1 [Example 43] | 7.68
O=C(c1cccc(/C=C\c2ccccc2)c1Br)N1CCN2C[C@@H](c3ccc(Cl)cc3)CC[C@@H]2C1 [Example 27] | 7.98

Reading of pIC50 for COc1cccc(C(=O)N2CCN3C[C@@](O)(c4ccc(F)c(F)c4)CC[C@@H]3C2)c1Cl [Example 59] with MAGL (Homo sapiens): 7.95

# O=C(c1cccc(N2CC(O)C2)c1Cl)N1CCN2C[C@@](O)(c3ccc(F)c(F)c3)CC[C@@H]2C1 [Example 63] with MAGL (Homo sapiens): pIC50 is 7.40

Field pIC50 (system: MAGL (Homo sapiens)) for entry O=C(c1cncc(-c2cc[nH]n2)c1Cl)N1CCN2C[C@@](O)(c3ccc(Cl)cc3)CC[C@@H]2C1 [Example 66] = 6.76

Field pIC50 (system: MAGL (Homo sapiens)) for entry O=C(c1cccc(OC(F)F)c1Cl)N1CCN2C[C@](O)(c3ccc(C(F)(F)F)cn3)CC[C@H]2C1 (stereo in doubt) [Example 38] = 6.49

# lookup: O=C(c1cccc(N2CCOC2=O)c1Cl)N1CCN2C[C@@](O)(c3ccc(Cl)cc3)CC[C@@H]2C1 [Example 13] on MAGL (Homo sapiens), pIC50 = 5.93

O=C(c1cccc(N2CCC23COC3)c1Cl)N1CCN2C[C@@](O)(c3ccc(Cl)cc3)CC[C@@H]2C1 [Example 36] on MAGL (Homo sapiens) gives pIC50 = 7.12

Measured pIC50 for this entry Cn1c(Cl)c(C(=O)N2CCN3C[C@@](O)(c4ccc(Cl)cc4)CC[C@@H]3C2)ccc1=O [Example 12] on MAGL (Homo sapiens): 5.35

Noted pIC50 for O=C(c1cccc(-c2[nH]ncc2F)c1F)N1CCN2C[C@@](O)(c3ccc(F)c(F)c3)CC[C@@H]2C1 [Example 62] , tested on MAGL (Homo sapiens): 7.69

Response field pIC50 (MAGL (Homo sapiens)) for item O=C(c1cccc(N2CC(O)C2)c1F)N1CCN2C[C@@](O)(c3ccc(Cl)cc3)CC[C@@H]2C1 [Example 10] : 7.24

pIC50 of Cc1cn[nH]c1-c1cccc(C(=O)N2CCN3C[C@@](O)(c4ccc(Cl)cc4)CC[C@@H]3C2)c1Cl [Example 16] , assay on MAGL (Homo sapiens), is 7.99

* * *

# key: entry, value: IC50
Sequence of the target: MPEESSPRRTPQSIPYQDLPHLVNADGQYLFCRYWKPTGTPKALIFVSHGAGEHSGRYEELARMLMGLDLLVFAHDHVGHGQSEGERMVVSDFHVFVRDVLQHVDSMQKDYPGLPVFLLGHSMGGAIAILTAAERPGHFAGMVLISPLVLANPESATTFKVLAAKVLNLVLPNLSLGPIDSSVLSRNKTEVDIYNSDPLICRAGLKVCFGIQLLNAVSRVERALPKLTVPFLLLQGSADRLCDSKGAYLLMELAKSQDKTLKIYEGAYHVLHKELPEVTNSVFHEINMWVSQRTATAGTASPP
I only need the number, in µM, no unit after it.

The cases that follow already have their IC50 on record.
O=C1CN(c2cccc(C(=O)N3CCN4C[C@@](O)(c5ccc(Cl)cc5)CC[C@@H]4C3)c2F)CCN1 [Example 34] | 0.145
COc1cccc(C(=O)N2CCN3C[C@@](O)(C(F)(F)F)CC[C@@H]3C2)c1Cl (racemic) [Example 26] | 0.678
O=C(c1cccc(N2C[C@H](O)[C@@H](O)C2)c1Cl)N1CCN2C[C@@](O)(c3ccc(F)c(Cl)c3)CC[C@@H]2C1 [Example 51] | 0.0109
CC(C)(C)OC(=O)N1CCN(c2cccc(C(=O)N3CCN4C[C@@](O)(c5ccc(Cl)cc5)CC[C@@H]4C3)c2F)CC1 [Example 22] | 0.838
O=C(c1cccc(-c2[nH]ncc2F)c1Cl)N1CCN2C[C@@](O)(c3ccc(C(F)(F)F)cn3)CC[C@@H]2C1 [Example 64] | 0.0134
O=C(c1cccc(-c2cc[nH]n2)c1F)N1CCN2C[C@@](O)(c3ccc(F)c(Cl)c3)CC[C@@H]2C1 [Example 55] | 0.00904

For reference, reported IC50 for Cc1c[nH]nc1-c1cccc(C(=O)N2CCN3C[C@@](O)(c4ccc(Cl)cc4)CC[C@@H]3C2)c1 [Example 17] stands at 0.255

Noted for C=CC(=O)Nc1ccc(/C=C/c2cccc(C(=O)N3CCN4C[C@@H](c5ccc(Cl)cc5)CC[C@@H]4C3)c2Br)cc1 [Example 30] : its IC50 reads 0.0185

The compound identified as COc1cccc(C(=O)N2CCN3C[C@](O)(c4ccc(F)c(Cl)c4)CC[C@H]3C2)c1Cl [Example 2] registered its IC50 at 0.0188

* * *

Target chain: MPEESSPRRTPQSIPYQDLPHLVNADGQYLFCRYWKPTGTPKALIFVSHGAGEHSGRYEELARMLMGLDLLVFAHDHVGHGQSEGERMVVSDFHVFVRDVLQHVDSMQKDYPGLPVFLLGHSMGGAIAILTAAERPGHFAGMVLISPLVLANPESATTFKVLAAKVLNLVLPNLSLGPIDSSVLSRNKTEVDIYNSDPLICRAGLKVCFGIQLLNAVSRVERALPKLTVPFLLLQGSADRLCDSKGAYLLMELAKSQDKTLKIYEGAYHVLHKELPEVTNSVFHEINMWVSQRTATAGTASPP
metricName: pIC50
Give only the number. pIC50 is defined as minus log10 of concentration in molar units.

Cc1c[nH]nc1-c1cccc(C(=O)N2CCN3C[C@@](O)(c4ccc(Cl)cc4)CC[C@@H]3C2)c1F | 6.77
O=C(c1cccc(N2CC(O)C2)c1Cl)N1CCN2C[C@@](O)(c3ccc(Cl)cc3)CC[C@@H]2C1 | 7.79
O=C(c1cccc(-c2ncsn2)c1Cl)N1CCN2C[C@@](O)(c3ccc(F)c(Cl)c3)CC[C@@H]2C1 | 7.85

Measured pIC50 of Cn1c(Cl)c(C(=O)N2CCN3C[C@](O)(c4ccc(Cl)cc4)CC[C@H]3C2)ccc1=O : 6.11

According to the records, this compound O=C(c1cccc(-c2ccsn2)c1Cl)N1CCN2C[C@@](O)(c3ccc(C(F)(F)F)cn3)CC[C@@H]2C1 displays pIC50 of 6.90

Looking up O=C(c1cccc(N2CC[C@@H](O)C2)c1Cl)N1CCN2C[C@@](O)(c3ccc(Cl)cc3)CC[C@@H]2C1 , I found its pIC50 recorded as 7.17
